Reference source for all entries: patent US20110236390A1

- Measured on: T1, cynomolgus IL-17A (cynomolgus, UniProt Q16552 24-155 (human entry), limits assumed)
- T1 construct: also called cyno IL-17A; cynoIL-17A
- T1 chain: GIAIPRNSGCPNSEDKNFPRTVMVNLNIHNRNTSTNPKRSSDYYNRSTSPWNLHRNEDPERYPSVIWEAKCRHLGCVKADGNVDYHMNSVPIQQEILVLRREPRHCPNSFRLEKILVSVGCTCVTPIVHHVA
- Protocol: competition ELISA: mAb against biotinylated cyno IL-17A binding to coated IL-17RA-Fc
Measurement name: pIC50
Recall that pIC50 is obtained by taking minus log10 of the concentration measured in molar.

Previously resolved entries follow.
MORmAb8101 (antibody, V domains shown) VH: QVQLQQSGPGLVKPSQTLSLTCAISGDSVSSSSAAWGWIRQSPGRGLEWLGRISYRSKWYNDYAVSVKSRITINPDTSKNQFSLQLNSVTPEDTAVYYCAREVDSIYYSYFDIWGQGTLVTVSS VL: DIVLTQSPATLSLSPGERATLSCRASQNVWAFYLAWYQQKPGQAPRLLIYGASNRATGVPARFSGSGSGTDFTLTISSLEPEDFATYYCTQYYSSPSLTFGQGTKVEIK    9.07
MORmAb8104 (antibody, V domains shown) VH: QVQLVQSGAEVKKPGSSVKVSCKASGGTFSSYAISWVRQAPGQGLEWMGSIIPWFGTTNYAQKFQGRVTITADESTSTAYMELSSLRSEDTAVYYCARDSEYYFDHWGQGTLVTVSS VL: DIQMTQSPSSLSASVGDRVTITCRASQGISNWLNWYQQKPGKAPKLLIYAASSLQSGVPSRFSGSGSGTDFTLTISSLQPEDFAVYYCQQYSDDPTFGQGTKVEIK    9.51
MORmAb8141 (antibody, V domains shown) VH: QVQLVESGGGLVQPGGSLRLSCAASGFTFSSYAMSWVRQAPGKGLEWVSTISMTSGFTYYADSVKGRFTISRDNSKNTLYLQMNSLRAEDTAVYYCARQLMLDVWGQGTLVTVSS VL: DIELTQPPSVSVAPGQTARISCSGDNLGDKYANWYQQKPGQAPVLVIYDDIDRPSGIPERFSGSNSGNTATLTISGTQAEDEADYYCGSYDFFLGLIVFGGGTKLTVL    8.84
MORmAb7785 (antibody, V domains shown) VH: QVQLVQSGAEVKKPGSSVKVSCKASGGTFSSYAISWVRQAPGQGLEWMGSIIPWFGWTNYAQKFQGRVTITADESTSTAYMELSSLRSEDTAVYYCARDSEYYFDHWGQGTLVTVSS VL: DIQMTQSPSSLSASVGDRVTITCRASQGISNWLNWYQQKPGKAPKLLIYAASSLQSGVPSRFSGSGSGTDFTLTISSLQPEDFAVYYCQQYSDDPTFGQGTKVEIK    9.57

# next binder below
Exercise: Query (binder): MORmAb8103 (antibody, V domains shown) VH: QVQLQQSGPGLVKPSQTLSLTCAISGDSVSSSSAAWGWIRQSPGRGLEWLGRISYRSKWYNDYAVSVKSRITINPDTSKNQFSLQLNSVTPEDTAVYYCAREVDSTYYSYFDIWGQGTLVTVSS VL: DIVLTQSPATLSLSPGERATLSCRASQNVWAFYLAWYQQKPGQAPRLLIYGASNRATGVPARFSGSGSGTDFTLTISSLEPEDFATYYCTQYYSSPSLTFGQGTKVEIK ; field requested: pIC50
Key: 9.31
